experiment-notes: CCTE_Deisenroth_AIME_384WELL_CTox_Inactive: Cytotoxicity Assessment (CTOX) in CCTE's 384-well Estrogen Receptor Transactivation Assay without AIME metabolic competence (metabolism negative), Deisenroth Lab (AID 2284039);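 note: cell viability via live-cell protease substrate cleaved to fluorescent probe; cells exposed 24 h to medium preincubated 2 h with alginate-water beads without S9; loss of fluorescence signal means loss of viability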
Inconclusive results are not listed. Calls of active or inactive are those of the source. Rule for the calls: active = hit-call score of the fitted dose curve at least 0.9, where 1 is the maximum; inconclusive = response in the unintended direction; inactive = score below 0.9.

structure | AC50
O=C(O)c1cc(N=Nc2ccc(S(=O)(=O)Nc3ccccn3)cc2)ccc1O | 49.7 µM (active)
COCCOCCOCCOC | inactive
CC1=CC(=O)CC(C)(C)C1 | inactive
CCCCCCCCO | inactive
Nc1ccc(Nc2ccccc2)cc1 | 74.6 µM (active)
On1ccccc1=S | inactive
Nc1cccc(N)c1 | inactive
COc1cccc(-c2ccc(/C=C\CN3CCCCCC3)cc2Cl)c1 | inactive

* * *

experiment-notes: ATG_NF_kB_CIS: Attagene CIS-FACTORIAL HepG2 Assay for human Nuclear Factor Kappa B (NF-kB) (AID 2282991)
details: HepG2 Attagene cis-factorial NF-kB reporter mRNA; actives raise or lower the signal
Active and inactive are the calls of the source. The calls were made as follows: active = hit-call score of the fitted dose curve at least 0.9, where 1 is the maximum; inactive = score below 0.9.
Possible outcomes: active, inactive

compound | classification
NC(=O)NO | inactive
O=C(CCCCCCCCc1cccnc1)N1CCC(C=C(c2ccccc2)c2ccccc2)CC1 | inactive
CC(C)CCO | inactive
O=c1[nH]c2ccc(S(=O)CCN3CCC(Cc4ccc(F)cc4)CC3)cc2o1 (stereo not drawn) | active
O=P(OC(CCl)CCl)(OC(CCl)CCl)OC(CCl)CCl | inactive
O=c1n(CC2CO2)c(=O)n(CC2CO2)c(=O)n1CC1CO1 (stereo not drawn) | active
O=C(OC[C@H]1O[C@@H](OC(=O)c2cc(O)c(O)c(OC(=O)c3cc(O)c(O)c(O)c3)c2)[C@H](OC(=O)c2cc(O)c(O)c(OC(=O)c3cc(O)c(O)c(O)c3)c2)[C@@H](OC(=O)c2cc(O)c(O)c(OC(=O)c3cc(O)c(O)c(O)c3)c2)[C@@H]1OC(=O)c1cc(O)c(O)c(OC(=O)c2cc(O)c(O)c(O)c2)c1)c1cc(O)c(O)c(OC(=O)c2cc(O)c(O)c(O)c2)c1 | inactive
Cn1cnc([N+](=O)[O-])c1Sc1ncnc2nc[nH]c12 | inactive
Clc1nc(Cl)c(Cl)c(Cl)c1Cl | inactive
C=CC(=C)CCC=C(C)C | inactive
CCc1cc(SCc2sc(-c3ccc(C(F)(F)F)cc3)nc2CN2CCN(c3ccc(OC)cc3)CC2)ccc1OCC(=O)O | active
O=C(O)c1cc(N=Nc2ccc(S(=O)(=O)Nc3ccccn3)cc2)ccc1O | inactive
O=C1CCC(N2C(=O)c3ccccc3C2=O)C(=O)N1 (stereo not drawn) | inactive

* * *

experiment-notes: Tanguay_ZF_120hpf_JAW_legacy: (Legacy) Oregon State University Tanguay Lab 120 Hour Post-fertilization zebrafish Assay for Jaw Malformation (AID 2283638)
Inconclusive results are not listed. Calls of active or inactive are those of the source. Rule for the calls: active = hit-call score of the fitted dose curve at least 0.9, where 1 is the maximum; inconclusive = response in the unintended direction; inactive = score below 0.9.
Possible outcomes: true (1) (active), false (0) (inactive)

compound | classification
O=C(CCCCCCCCc1cccnc1)N1CCC(C=C(c2ccccc2)c2ccccc2)CC1 | false (0)
Cn1cnc([N+](=O)[O-])c1Sc1ncnc2nc[nH]c12 | false (0)
CCOC(=O)COc1ccc2c(c1)CC(NCC(O)c1cccc(Cl)c1)CC2 (centres undefined) | false (0)
COc1ccc(/C=C/S(=O)(=O)NC(=O)c2ccc(C)cc2Cl)cc1 | false (0)
COC(=O)c1ccccc1O | false (0)
CC(C)CCCCCCCOC(=O)CCCCC(=O)OCCCCCCCC(C)C | false (0)
CC(C)=CCC/C(C)=C/CO | false (0)
COc1cccc(-c2ccc(/C=C\CN3CCCCCC3)cc2Cl)c1 | false (0)
Cc1ccc(C)c(O)c1 | false (0)
CCc1cc(SCc2sc(-c3ccc(C(F)(F)F)cc3)nc2CN2CCN(c3ccc(OC)cc3)CC2)ccc1OCC(=O)O | false (0)
CC(C)(O)c1coc(S(=O)(=O)NC(=O)Nc2c3c(cc4c2CCC4)CCC3)c1 | false (0)
C=CCCCCCCCCC(=O)O | false (0)
C=CC(=C)CCC=C(C)C | false (0)
Nc1nc2ncc(CNc3ccc(C(=O)N[C@@H](CCC(=O)O)C(=O)O)cc3)nc2c(=O)[nH]1 | false (0)
Fc1ccccc1[C@@H](F)COC1CCC(Nc2ncnc3[nH]ncc23)CC1 (some centres undefined) | true (1)
CNCc1ccc(NC(=O)c2c[nH]c3c2C(=O)CCC3)cc1 | false (0)
CC1(C)C(=O)N(Br)C(=O)N1Br | false (0)
O=C(O)CCN(C1(C(=O)NO)CCCC1)S(=O)(=O)c1ccc(Oc2ccc(F)cc2)cc1 | false (0)
CCCCC(CC)COC(=O)c1ccc(C(=O)OCC(CC)CCCC)cc1 (centres undefined) | false (0)
Nc1cccc(N)c1 | false (0)
COCCOCCOCCOC | false (0)
CCCCCCc1ccc(O)cc1O | false (0)
COC(=O)CC(=O)OC | false (0)
CCCN(C1CCN(C(=O)C2CCNCC2)CC1)[C@@H]1CCc2ccc(OC)cc2C1 | false (0)
Clc1nc(Cl)c(Cl)c(Cl)c1Cl | false (0)
Cc1ccc(O)cc1 | false (0)
CCCCCCCCCCCCc1ccccc1 | false (0)
CC(C)CCO | false (0)
O=C(O)c1cccc(Oc2ccccc2)c1 | false (0)
C1=CCCC=CCCC=CCC1 | false (0)
COCCOc1cc2cc(C(=O)NC3CCN(C(C)C)CC3)n(CC(=O)Nc3ccc(Cl)cn3)c2cn1 | false (0)
CCn1nc(Cc2ccccc2)cc1C1CCN(C[C@H]2C[C@H](N(C)[C@@H](C(=O)O)C(C)C)C[C@@H]2c2cccc(F)c2)CC1 | false (0)
CCCCC(CC)COC(=O)CCCCCCCCC(=O)OCC(CC)CCCC (centres undefined) | false (0)
Cc1[nH]cnc1C[C@H]1CCc2c(C)c3ccccc3n2C1=O | false (0)
C[C@](N)(Cc1ccc(O)c(O)c1)C(=O)O | false (0)
CC(C)CCCCCCOC(=O)c1ccc(C(=O)OCCCCCCC(C)C)c(C(=O)OCCCCCCC(C)C)c1 | false (0)
CC(C)=CCCC(C)=CC=O | false (0)
Nc1ccc(Nc2ccccc2)cc1 | true (1)
CCCCCCCCCCCCCCCO | false (0)

The measurements presented in this section are drawn from PubChem BioAssay (EPA / NIEHS).
